Sourced from patent US20240368267A1

Target: T1, human IL-6 (human, UniProt P05231 30-212)
T1 construct: also called interleukin-6
T1 sequence (P05231 30-212 limits assumed): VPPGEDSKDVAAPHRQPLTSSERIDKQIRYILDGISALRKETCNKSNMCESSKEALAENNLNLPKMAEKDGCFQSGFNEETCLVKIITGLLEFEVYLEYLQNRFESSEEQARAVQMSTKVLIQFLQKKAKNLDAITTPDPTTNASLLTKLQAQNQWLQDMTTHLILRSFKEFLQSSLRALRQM
Experiment: SPR (Biacore T200), antibody from cell supernatant captured on Protein A, IL-6 flowed over, 37 C

Binder	Unit Abbrev	kon
anti-IL-6 antibody, heavy chain S35H, G66D / light chain WT (antibody, human IgG1, V domains shown, Derived as m2; Engineered human IgG1) VH: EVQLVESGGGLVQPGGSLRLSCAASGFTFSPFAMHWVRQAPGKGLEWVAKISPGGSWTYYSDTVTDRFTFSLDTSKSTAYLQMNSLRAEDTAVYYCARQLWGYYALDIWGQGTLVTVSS VL: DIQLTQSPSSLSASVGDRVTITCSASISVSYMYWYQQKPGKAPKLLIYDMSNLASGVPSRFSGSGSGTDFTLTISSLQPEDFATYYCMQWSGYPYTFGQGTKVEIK	M⁻¹ s⁻¹	2.92e+06
anti-IL-6 antibody, heavy chain I51A, G66D / light chain WT (antibody, human IgG1, V domains shown, Derived as m2; Engineered human IgG1) VH: EVQLVESGGGLVQPGGSLRLSCAASGFTFSPFAMSWVRQAPGKGLEWVAKASPGGSWTYYSDTVTDRFTFSLDTSKSTAYLQMNSLRAEDTAVYYCARQLWGYYALDIWGQGTLVTVSS VL: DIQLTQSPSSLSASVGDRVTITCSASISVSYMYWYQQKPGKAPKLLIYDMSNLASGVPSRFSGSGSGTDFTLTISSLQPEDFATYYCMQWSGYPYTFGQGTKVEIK	M⁻¹ s⁻¹	1.76e+06
anti-IL-6 antibody, heavy chain S35T, G66D / light chain WT (antibody, human IgG1, V domains shown, Derived as m2; Engineered human IgG1) VH: EVQLVESGGGLVQPGGSLRLSCAASGFTFSPFAMTWVRQAPGKGLEWVAKISPGGSWTYYSDTVTDRFTFSLDTSKSTAYLQMNSLRAEDTAVYYCARQLWGYYALDIWGQGTLVTVSS VL: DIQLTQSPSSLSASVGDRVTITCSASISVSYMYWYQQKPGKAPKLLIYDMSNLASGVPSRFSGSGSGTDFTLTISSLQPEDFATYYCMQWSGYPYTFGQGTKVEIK	M⁻¹ s⁻¹	1.38e+06
